These entries and their values trace back to ChEMBL document CHEMBL3880420.

TARGET_SYSTEM: Prostaglandin G/H synthase 1 (Mus musculus) (UniProt P22437)
MEASUREMENT_PROTOCOL: Inhibition of COX1 in mouse J774 cells using arachidonic acid as substrate assessed as decrease in PGE2 production at 10 uM preincubated for 15 mins followed by substrate addition measured after 30 mins by radioimmunoassay relative to control
Type: cell-based
Exercise: state measured inhibition for each of the molecules provided.

Record excerpt, results attached:
Cc1c(CC(=O)OCCO)cc(-c2ccc(S(C)(=O)=O)cc2)n1-c1cccc(F)c1: < 20%
Cc1c(CC(=O)NC(CCO[N+](=O)[O-])C(=O)O)cc(-c2ccc(S(C)(=O)=O)cc2)n1-c1ccc(F)cc1 (racemic): < 20%

Please state, for each entry, its recorded inhibition.
1. Cc1c(CCOCCCO)cc(-c2ccc(S(C)(=O)=O)cc2)n1-c1ccc(F)cc1
2. Cc1c(CCOCCO[N+](=O)[O-])cc(-c2ccc(S(C)(=O)=O)cc2)n1-c1ccc(F)c(F)c1

Marked response:
["< 20%", "< 20%"]

Please state, for each entry, its recorded inhibition.
1. Cc1c(CC(=O)NCCCO)cc(-c2ccc(S(C)(=O)=O)cc2)n1-c1ccc(F)cc1
2. Cc1c(CC(=O)N[C@@H](CO[N+](=O)[O-])C(=O)O)cc(-c2ccc(S(C)(=O)=O)cc2)n1-c1cccc(F)c1
3. Cc1c(CCOCCO)cc(-c2ccc(S(C)(=O)=O)cc2)n1-c1ccc(F)c(F)c1
4. Cc1c(CC(=O)OCCO)cc(-c2ccc(S(C)(=O)=O)cc2)n1-c1ccc(F)cc1

Marked response:
["< 20%", "< 20%", "< 20%", "< 20%"]

====

TARGET_SYSTEM: Prostaglandin G/H synthase 1 (Mus musculus) (UniProt P22437)
MEASUREMENT_PROTOCOL: Inhibition of COX1 in mouse J774 cells using arachidonic acid as substrate assessed as decrease in PGE2 production at 10 uM preincubated for 15 mins followed by substrate addition measured after 30 mins by radioimmunoassay relative to control
Type: cell-based
Exercise: state measured inhibition for each of the molecules provided.

Record excerpt, results attached:
Cc1c(CC(=O)NCCO)cc(-c2ccc(S(C)(=O)=O)cc2)n1-c1ccc(F)cc1: < 20%
Cc1c(CC(=O)NCCO[N+](=O)[O-])cc(-c2ccc(S(C)(=O)=O)cc2)n1-c1ccc(F)cc1: < 20%
CSc1ccc(-n2c(-c3ccc(S(C)(=O)=O)cc3)cc(CC(=O)OCCO)c2C)cc1: < 20%
CSc1ccc(-n2c(-c3ccc(S(C)(=O)=O)cc3)cc(CC(=O)OCCCCO)c2C)cc1: < 20%
Cc1c(CCOCCCO[N+](=O)[O-])cc(-c2ccc(S(C)(=O)=O)cc2)n1-c1ccc(F)cc1: < 20%

# ---- query molecule ----
Exam item: inhibition lookup needed for Cc1c(CC(=O)NCCO)cc(-c2ccc(S(C)(=O)=O)cc2)n1-c1cccc(F)c1 , thanks.
Marked response: < 20%

====

TARGET_SYSTEM: Prostaglandin G/H synthase 1 (Mus musculus)
Sequence (whole entry): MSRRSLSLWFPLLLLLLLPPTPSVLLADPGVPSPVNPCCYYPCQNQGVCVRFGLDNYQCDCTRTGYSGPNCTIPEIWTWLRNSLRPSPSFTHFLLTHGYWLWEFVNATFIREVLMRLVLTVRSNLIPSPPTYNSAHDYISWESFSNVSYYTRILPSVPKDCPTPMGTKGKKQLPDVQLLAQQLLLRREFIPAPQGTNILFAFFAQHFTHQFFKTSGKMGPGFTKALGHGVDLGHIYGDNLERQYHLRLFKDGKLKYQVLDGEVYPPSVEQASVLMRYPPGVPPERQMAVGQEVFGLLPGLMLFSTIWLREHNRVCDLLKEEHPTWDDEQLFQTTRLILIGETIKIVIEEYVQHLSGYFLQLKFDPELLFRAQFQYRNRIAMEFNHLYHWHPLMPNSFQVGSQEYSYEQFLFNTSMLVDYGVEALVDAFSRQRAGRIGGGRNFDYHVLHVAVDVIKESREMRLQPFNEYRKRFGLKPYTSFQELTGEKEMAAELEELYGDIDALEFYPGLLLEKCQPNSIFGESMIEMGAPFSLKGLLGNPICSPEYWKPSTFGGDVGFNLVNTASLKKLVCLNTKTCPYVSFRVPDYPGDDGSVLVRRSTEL
MEASUREMENT_PROTOCOL: Inhibition of COX1 in mouse J774 cells using arachidonic acid as substrate assessed as decrease in PGE2 production at 10 uM preincubated for 15 mins followed by substrate addition measured after 30 mins by radioimmunoassay relative to control
Type: cell-based
OBSERVABLE: inhibition

Record excerpt, results attached:
Cc1c(CCOCCCO)cc(-c2ccc(S(C)(=O)=O)cc2)n1-c1cccc(F)c1: < 20%
Cc1c(C(N)C(=O)OCCCCO[N+](=O)[O-])cc(-c2ccc(S(C)(=O)=O)cc2)n1-c1ccc(F)cc1 (racemic): < 20%
COc1ccc(-n2c(-c3ccc(S(C)(=O)=O)cc3)cc(CC(=O)OCCO[N+](=O)[O-])c2C)cc1: < 20%

# ---- query compound ----
Exam item: inhibition lookup needed for Cc1c(CC(=O)N[C@@H](CO[N+](=O)[O-])C(=O)O)cc(-c2ccc(S(C)(=O)=O)cc2)n1-c1ccc(F)cc1 , thanks.
Marked response: < 20%
